# Experimental system: T1, Human CD47-C33G (human, UniProt Q08722 19-135)
# T1 construct: also called CD47 mutein with C33G mutation
# T1 sequence (Q08722 19-135 C33G limits assumed): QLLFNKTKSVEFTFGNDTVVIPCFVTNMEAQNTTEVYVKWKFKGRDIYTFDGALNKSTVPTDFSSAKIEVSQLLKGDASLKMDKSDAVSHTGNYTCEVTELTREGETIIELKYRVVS
# Measurement notes: SPR, IgG captured, CD47 in flow; exp 4;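 also: biacore T200 SPR using IgG from transfected HEK293 supernatants against wild-type human CD47 or its C33G mutein, rates fitted to association and dissociation curves, KD estimated from them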
Simple rule here: koff less than 0.006 s⁻¹ is TRUE, otherwise FALSE.

[[record]]
binder = "108VH5.M23 / 108VL1.M5 (antibody, human IgG4 S228P, kappa, V domains shown, Full-length IgG4 (S228P), kappa; also called VH5.M23 VL1.M5) VH: EVQLVQSGAEVKKPGASVKVSCKASGYTFTHHWMHWVRQAPGQGLEWMGMIDASDKETRYAQKFQGRVTMTRDTSTSTVYMELSSLRSEDTAVYYCARLGRYYFDYWGQGTLVTVSS VL: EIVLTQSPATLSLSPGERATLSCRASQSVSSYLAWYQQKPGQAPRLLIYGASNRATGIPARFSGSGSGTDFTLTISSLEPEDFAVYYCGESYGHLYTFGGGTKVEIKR"
discrete_label = "TRUE"

[[record]]
binder = "108VH5.M26 / 108VL1.M5 (antibody, human IgG4 S228P, kappa, V domains shown, Full-length IgG4 (S228P), kappa; also called VH5.M26 VL1.M5) VH: EVQLVQSGAEVKKPGASVKVSCKASGYTFTHHWMHWVRQAPGQGLEWMGMIDASDVETRYAQKFQGRVTMTRDTSTSTVYMELSSLRSEDTAVYYCARLGRYYFDYWGQGTLVTVSS VL: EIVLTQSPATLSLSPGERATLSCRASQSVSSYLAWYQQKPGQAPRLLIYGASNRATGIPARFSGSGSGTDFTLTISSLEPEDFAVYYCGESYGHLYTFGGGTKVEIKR"
discrete_label = "TRUE"

[[record]]
binder = "108VH5.M24 / 108VL1.M5 (antibody, human IgG4 S228P, kappa, V domains shown, Full-length IgG4 (S228P), kappa; also called VH5.M24 VL1.M5) VH: EVQLVQSGAEVKKPGASVKVSCKASGYTFTHHWMHWVRQAPGQGLEWMGMIDASDLETRYAQKFQGRVTMTRDTSTSTVYMELSSLRSEDTAVYYCARLGRYYFDYWGQGTLVTVSS VL: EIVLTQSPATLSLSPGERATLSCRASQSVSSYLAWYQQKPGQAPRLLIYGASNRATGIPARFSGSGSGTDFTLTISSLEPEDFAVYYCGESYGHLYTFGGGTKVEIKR"
discrete_label = "FALSE"

[[record]]
binder = "108VH5.M22 / 108VL1.M5 (antibody, human IgG4 S228P, kappa, V domains shown, Full-length IgG4 (S228P), kappa; also called VH5.M22 VL1.M5) VH: EVQLVQSGAEVKKPGASVKVSCKASGYTFTHHWMHWVRQAPGQGLEWMGMIDASDIETRYAQKFQGRVTMTRDTSTSTVYMELSSLRSEDTAVYYCARLGRYYFDYWGQGTLVTVSS VL: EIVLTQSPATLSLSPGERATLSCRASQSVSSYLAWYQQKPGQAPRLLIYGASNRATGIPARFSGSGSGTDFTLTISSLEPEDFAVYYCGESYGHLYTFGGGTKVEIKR"
discrete_label = "FALSE"

[[record]]
binder = "chimeric antibody 108C10A6 (antibody, V domains shown, Chimeric antibody with mouse variable domains; captured through human Fc; also called VH / VL) VH: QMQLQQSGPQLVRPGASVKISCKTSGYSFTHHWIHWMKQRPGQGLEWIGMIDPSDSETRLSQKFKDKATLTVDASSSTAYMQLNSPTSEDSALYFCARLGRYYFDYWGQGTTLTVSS VL: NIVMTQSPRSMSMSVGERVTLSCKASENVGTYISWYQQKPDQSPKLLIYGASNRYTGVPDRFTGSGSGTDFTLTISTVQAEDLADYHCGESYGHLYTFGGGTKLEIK"
discrete_label = "TRUE"

